molecular target: LIMK2 (Homo sapiens (Human)); test: Lanthascreen Eu binding assay (TR-FRET), inhibition of LIMK2; settings: Lanthascreen Eu binding assay
Sequence (P53671 whole entry): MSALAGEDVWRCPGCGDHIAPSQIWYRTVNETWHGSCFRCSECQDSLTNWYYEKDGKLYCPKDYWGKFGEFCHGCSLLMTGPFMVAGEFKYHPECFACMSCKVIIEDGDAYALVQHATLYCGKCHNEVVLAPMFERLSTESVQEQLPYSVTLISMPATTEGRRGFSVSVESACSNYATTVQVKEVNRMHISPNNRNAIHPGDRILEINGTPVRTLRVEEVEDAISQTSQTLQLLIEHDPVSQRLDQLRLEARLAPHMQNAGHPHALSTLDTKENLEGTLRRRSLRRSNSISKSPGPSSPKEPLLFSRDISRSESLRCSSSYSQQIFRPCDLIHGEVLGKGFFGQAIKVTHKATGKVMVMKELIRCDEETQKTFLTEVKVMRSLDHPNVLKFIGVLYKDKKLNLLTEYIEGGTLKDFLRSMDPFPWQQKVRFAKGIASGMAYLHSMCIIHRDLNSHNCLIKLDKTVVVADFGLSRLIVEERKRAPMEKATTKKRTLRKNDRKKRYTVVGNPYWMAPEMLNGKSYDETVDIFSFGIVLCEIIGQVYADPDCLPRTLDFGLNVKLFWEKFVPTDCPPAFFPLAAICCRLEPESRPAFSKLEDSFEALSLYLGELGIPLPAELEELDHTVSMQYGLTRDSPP
ASSAY ENDPOINT: Ki (nM)
Report the figure in nM without appending any unit label.

Which Ki value is on record for O=C(Nc1cccc(C(F)(F)F)c1)N1CC=C(c2ncnc3[nH]c4c(c23)CCC4)CC1 ?
68.3

Which Ki value is on record for CC(C)(C)OC(=O)NCCCOc1cccc(-c2cccc(NC(=O)N3CC=C(c4ncnc5[nH]cc(C6CC6)c45)CC3)c2)c1 ?
58.1

Which Ki value is on record for O=C(Nc1cccc(F)c1)N1CC=C(c2ncnc3[nH]c4c(c23)CCCC4)CC1 ?
25.6

Which Ki value is on record for O=C(Nc1cccc(F)c1)N1CC=C(c2ncnc3[nH]c4c(c23)CCCCC4)CC1 ?
64

Which Ki value is on record for CNC(=O)c1cc(Oc2ccc(NC(=O)N3CC=C(c4ncnc5[nH]cc(C)c45)CC3)cc2)ccn1 ?
49.3

Which Ki value is on record for CN1CCc2[nH]c3ncnc(C4=CCN(C(=O)Nc5cccc(Cl)c5)CC4)c3c2C1 ?
2440

Which Ki value is on record for Cc1c[nH]c2ncnc(C3=CCN(C(=O)Nc4cccc(Oc5cccc(F)c5)c4)CC3)c12 ?
9.83

Which Ki value is on record for CNC(=O)c1cccc(NC(=O)N2CC=C(c3ncnc4[nH]c5c(c34)CCC5)CC2)c1 ?
40.5
